# target under test: HSV-1 DNA polymerase (Human herpesvirus 1)
# experimental protocol: biochemical
# Type: biochemical
# condition parameters: Ki, mixed model enzyme inhibition, varying dGTP, calf thymus DNA
value kind: Ki
Report the figure along with its unit, number first.

Input: Name the recorded Ki for Nc1nc2c(ncn2[C@@H]2CC[C@H](OC(C(=O)O)P(=O)(O)O)C2)c(=O)[nH]1 (mixture of isomers) [(L,D)-(±)G-α-CNP] .
Output: 9.28 µM

----------
# target under test: UniProt:P04585
# experimental protocol: Site-specific Fe2+ footprinting, post-translocation trapping
value kind: EC50 (nM)
Give bare numbers, in nM.

Input: Name the recorded EC50 for Nc1nc2c(ncn2[C@@H]2CC[C@H](OC(C(=O)O)P(=O)(O)O)C2)c(=O)[nH]1 (mixture of isomers) [(L,D)-(±)G-α-CNP] .
Output: 44

----------
# target under test: cellular DNA polymerase α (Homo sapiens, UniProt P09884)
# Sequence (P09884 whole entry): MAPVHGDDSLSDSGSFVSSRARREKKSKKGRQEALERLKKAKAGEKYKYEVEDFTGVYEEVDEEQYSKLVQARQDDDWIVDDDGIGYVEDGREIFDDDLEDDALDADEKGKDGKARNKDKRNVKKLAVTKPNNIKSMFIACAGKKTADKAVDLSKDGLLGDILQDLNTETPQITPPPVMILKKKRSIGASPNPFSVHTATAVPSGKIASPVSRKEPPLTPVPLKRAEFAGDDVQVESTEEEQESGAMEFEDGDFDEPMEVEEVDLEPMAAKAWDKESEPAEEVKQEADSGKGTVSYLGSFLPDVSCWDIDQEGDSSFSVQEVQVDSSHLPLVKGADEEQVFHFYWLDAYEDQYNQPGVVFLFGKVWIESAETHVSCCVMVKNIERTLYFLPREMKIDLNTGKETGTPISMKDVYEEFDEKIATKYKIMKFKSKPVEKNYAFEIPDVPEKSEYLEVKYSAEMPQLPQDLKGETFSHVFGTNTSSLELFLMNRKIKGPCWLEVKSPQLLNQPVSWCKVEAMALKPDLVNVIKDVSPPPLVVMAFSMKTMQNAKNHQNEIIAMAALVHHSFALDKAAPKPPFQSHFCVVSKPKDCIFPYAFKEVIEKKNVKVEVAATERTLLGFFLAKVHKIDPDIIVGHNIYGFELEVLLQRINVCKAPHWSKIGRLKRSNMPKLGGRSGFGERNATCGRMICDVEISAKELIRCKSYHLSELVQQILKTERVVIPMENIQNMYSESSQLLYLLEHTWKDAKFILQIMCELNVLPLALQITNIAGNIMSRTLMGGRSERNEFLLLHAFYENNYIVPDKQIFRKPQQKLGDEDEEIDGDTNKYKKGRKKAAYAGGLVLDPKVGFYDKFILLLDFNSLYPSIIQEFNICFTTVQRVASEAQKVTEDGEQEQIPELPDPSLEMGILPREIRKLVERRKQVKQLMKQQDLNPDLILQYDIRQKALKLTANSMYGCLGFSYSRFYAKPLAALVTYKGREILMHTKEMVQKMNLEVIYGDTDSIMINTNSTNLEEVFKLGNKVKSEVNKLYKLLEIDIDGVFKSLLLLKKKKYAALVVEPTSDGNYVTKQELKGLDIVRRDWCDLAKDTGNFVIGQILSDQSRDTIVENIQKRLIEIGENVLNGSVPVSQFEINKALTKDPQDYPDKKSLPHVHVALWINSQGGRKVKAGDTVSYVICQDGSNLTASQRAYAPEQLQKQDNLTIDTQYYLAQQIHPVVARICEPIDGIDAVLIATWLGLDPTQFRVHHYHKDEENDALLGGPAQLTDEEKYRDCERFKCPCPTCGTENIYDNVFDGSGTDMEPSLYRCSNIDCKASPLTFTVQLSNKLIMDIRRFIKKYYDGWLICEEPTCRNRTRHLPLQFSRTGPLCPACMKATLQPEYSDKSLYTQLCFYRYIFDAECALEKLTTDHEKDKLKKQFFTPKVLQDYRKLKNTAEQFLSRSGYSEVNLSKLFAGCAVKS
# experimental protocol: Cellular DNA polymerase α assay
# Assay type: biochemical
# condition parameters: read-out: IC50 α DNA pol; calf thymus DNA, [^3H]dGTP
Field: IC50. Provide a value for each of the compounds that follow.

Cn1c2ccccc2c2c1cc(C#N)c(=O)n2-c1ccc([N+](=O)[O-])cc1 [INDOPY] = > 100 µM

Input: Could you share what IC50 was measured for O=C(O)P(=O)(O)O [PFA] , tested on cellular DNA polymerase α (Homo sapiens, UniProt P09884)?
Output: 56 µM

----------
# target under test: UniProtKB P08546
# experimental protocol: Kinetic analysis of HCMV DNA polymerase inhibition
# Format: biochemical
# condition parameters: Ki, competitive model, varying dGTP, calf thymus DNA
value kind: pKi
Numbers only, as −log10 of the molar value.

Input: Name the recorded pKi for Nc1nc2c(ncn2[C@@H]2CC[C@H](OC(C(=O)O)P(=O)(O)O)C2)c(=O)[nH]1 (mixture of isomers) [(L,D)-(±)G-α-CNP] .
Output: 5.67

----------
# target under test: HSV-1 DNA polymerase (Human herpesvirus 1)
# experimental protocol: biochemical
# Format: biochemical
# condition parameters: Ki, non-competitive model, varying dGTP, calf thymus DNA
value kind: pKi
Answers are plain numbers, as −log10 of the molar value.

Input: Name the recorded pKi for Nc1nc2c(ncn2[C@@H]2CC[C@H](OC(C(=O)O)P(=O)(O)O)C2)c(=O)[nH]1 (mixture of isomers) [(L,D)-(±)G-α-CNP] .
Output: 5.38

----------
Field: pIC50. Provide a value for each of the compounds that follow.
# target under test: HCMV DNA polymerase (Human cytomegalovirus, UniProt P08546)
# Sequence (P08546 whole entry): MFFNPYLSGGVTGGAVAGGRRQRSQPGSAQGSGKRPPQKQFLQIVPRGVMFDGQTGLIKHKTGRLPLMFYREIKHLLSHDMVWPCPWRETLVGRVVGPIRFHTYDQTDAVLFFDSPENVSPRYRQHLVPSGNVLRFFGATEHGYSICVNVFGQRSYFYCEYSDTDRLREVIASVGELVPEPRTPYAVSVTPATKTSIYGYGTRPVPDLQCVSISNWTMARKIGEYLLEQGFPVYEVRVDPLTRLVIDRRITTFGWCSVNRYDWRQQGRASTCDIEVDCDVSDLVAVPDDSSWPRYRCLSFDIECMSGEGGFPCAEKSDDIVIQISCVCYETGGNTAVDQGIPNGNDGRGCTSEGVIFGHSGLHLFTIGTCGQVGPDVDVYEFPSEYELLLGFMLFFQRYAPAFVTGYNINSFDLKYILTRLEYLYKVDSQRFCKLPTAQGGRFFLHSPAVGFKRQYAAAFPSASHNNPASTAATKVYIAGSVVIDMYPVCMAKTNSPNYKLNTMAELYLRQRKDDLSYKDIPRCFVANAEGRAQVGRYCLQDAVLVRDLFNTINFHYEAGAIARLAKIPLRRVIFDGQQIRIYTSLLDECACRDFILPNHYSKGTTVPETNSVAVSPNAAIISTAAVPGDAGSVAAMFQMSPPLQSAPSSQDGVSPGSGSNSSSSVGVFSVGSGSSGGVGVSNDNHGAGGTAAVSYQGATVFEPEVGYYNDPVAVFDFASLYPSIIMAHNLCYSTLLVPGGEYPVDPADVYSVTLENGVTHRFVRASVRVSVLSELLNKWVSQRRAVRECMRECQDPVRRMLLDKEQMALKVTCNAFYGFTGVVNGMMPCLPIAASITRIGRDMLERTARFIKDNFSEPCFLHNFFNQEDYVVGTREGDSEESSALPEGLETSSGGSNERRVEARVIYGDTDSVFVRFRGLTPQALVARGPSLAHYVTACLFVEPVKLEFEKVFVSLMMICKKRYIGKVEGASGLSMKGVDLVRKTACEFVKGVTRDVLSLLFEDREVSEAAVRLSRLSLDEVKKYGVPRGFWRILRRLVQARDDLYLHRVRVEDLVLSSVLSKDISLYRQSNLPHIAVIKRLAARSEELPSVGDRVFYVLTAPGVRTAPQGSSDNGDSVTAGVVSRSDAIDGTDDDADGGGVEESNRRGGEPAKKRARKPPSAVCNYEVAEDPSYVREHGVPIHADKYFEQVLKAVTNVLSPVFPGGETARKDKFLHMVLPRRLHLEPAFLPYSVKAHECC
# experimental protocol: HCMV DNA polymerase enzyme assay
# Type: biochemical
# condition parameters: IC50 HCMV DNA pol, calf thymus DNA, [^3H]dTTP
pIC50: −log10 of the molar value.

Nc1nc2c(ncn2[C@H]2CC[C@@H](COP(=O)(O)OP(=O)(O)OP(=O)(O)O)O2)c(=O)[nH]1 [ddGTP, 2′,3′-dideoxyguanosine-5′-triphosphate] = < 4.00

Lab note: each compound below needs its pIC50 filled in.
1. Nc1nc2c(ncn2[C@@H]2CC[C@H](OC(C(=O)O)P(=O)(O)O)C2)c(=O)[nH]1 (mixture of isomers) [(L,D)-(±)G-α-CNP]
2. Cc1ccnc2c1NC(=O)c1cccnc1N2C1CC1

Output:
1. 4.80
2. < 3.60

----------
# target under test: HSV-1 DNA polymerase (Human herpesvirus 1, UniProt P04293)
# Sequence (P04293 whole entry): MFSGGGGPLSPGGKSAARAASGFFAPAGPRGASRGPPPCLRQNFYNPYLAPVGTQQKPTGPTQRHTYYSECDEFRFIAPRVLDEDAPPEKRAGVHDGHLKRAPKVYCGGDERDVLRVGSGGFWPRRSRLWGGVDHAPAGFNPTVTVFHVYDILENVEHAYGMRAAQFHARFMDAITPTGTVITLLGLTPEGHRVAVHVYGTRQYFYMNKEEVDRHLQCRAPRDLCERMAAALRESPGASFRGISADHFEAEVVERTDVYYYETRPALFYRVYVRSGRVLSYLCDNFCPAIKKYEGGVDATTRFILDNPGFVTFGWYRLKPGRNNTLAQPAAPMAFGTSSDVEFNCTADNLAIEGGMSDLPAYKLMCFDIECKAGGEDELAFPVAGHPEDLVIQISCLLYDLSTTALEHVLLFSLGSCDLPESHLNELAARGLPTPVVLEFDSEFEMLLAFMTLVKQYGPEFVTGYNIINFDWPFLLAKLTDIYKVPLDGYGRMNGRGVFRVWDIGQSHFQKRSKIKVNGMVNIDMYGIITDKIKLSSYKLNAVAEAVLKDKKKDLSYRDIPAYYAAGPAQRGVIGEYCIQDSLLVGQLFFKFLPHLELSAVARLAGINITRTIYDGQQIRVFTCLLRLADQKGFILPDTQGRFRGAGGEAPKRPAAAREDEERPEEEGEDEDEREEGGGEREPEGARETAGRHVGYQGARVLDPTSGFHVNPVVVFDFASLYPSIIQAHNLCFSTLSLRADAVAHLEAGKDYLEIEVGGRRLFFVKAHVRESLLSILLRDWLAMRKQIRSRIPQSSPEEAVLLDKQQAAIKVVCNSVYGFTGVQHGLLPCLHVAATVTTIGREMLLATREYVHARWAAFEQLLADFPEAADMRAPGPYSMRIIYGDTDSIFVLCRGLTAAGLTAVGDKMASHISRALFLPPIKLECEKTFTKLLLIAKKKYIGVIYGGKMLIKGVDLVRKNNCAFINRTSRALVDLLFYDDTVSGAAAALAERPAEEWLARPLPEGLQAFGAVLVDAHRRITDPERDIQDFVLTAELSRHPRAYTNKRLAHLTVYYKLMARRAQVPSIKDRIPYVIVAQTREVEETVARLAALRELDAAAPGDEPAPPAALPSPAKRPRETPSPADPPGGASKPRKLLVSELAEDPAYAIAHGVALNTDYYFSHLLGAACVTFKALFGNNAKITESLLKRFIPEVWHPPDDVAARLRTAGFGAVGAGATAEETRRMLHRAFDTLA
# experimental protocol: HSV-1 DNA polymerase enzyme assay
# Assay type: biochemical
# condition parameters: IC50 HSV-1 DNA pol, calf thymus DNA, [^3H]dGTP
Field: pIC50. Provide a value for each of the compounds that follow.
One number for each entry, as −log10 of the molar value.

Nc1nc2c(ncn2[C@@H]2CC[C@H](OC(C(=O)O)P(=O)(O)O)C2)c(=O)[nH]1 (mixture of isomers) [(L,D)-(±)G-α-CNP] = 5.10

Alright, here's another compound for you.
Input: Name the recorded pIC50 for Nc1nc2c(ncn2[C@H]2CC[C@@H](COP(=O)(O)OP(=O)(O)OP(=O)(O)O)O2)c(=O)[nH]1 [ddGTP, 2′,3′-dideoxyguanosine-5′-triphosphate] .
Output: 5.35

----------
# target under test: HIV-1 RT (Human immunodeficiency virus type 1 group M subtype B)
# experimental protocol: Kinetic analysis of HIV-1 RT inhibition
# Type: biochemical
# condition parameters: Ki, mixed model enzyme inhibition, varying dGTP, poly rC.dG
value kind: Ki (µM)
Numbers only, in µM.

Input: Name the recorded Ki for Nc1nc2c(ncn2[C@@H]2CC[C@H](OC(C(=O)O)P(=O)(O)O)C2)c(=O)[nH]1 (mixture of isomers) [(L,D)-(±)G-α-CNP] .
Output: 0.944

----------
# target under test: UniProt:P04585
# experimental protocol: HIV-1 RT assay with homopolymeric template/primers
# Assay type: biochemical
# condition parameters: read-out: IC50 HIV-1 RT; poly rC.dG, [^3H]dGTP
value kind: IC50 (µM)
Answers are plain numbers, in µM.

Input: Name the recorded IC50 for O=C(O)P(=O)(O)O [PFA] .
Output: 17

----------
# target under test: HIV-1 RT (Human immunodeficiency virus type 1 group M subtype B, UniProt P04585)
# experimental protocol: Kinetic analysis of HIV-1 RT inhibition
# Format: biochemical
# condition parameters: Ki, competitive model, varying poly rC.dG
value kind: pKi
Answers are plain numbers, as −log10 of the molar value.

Input: Name the recorded pKi for Nc1nc2c(ncn2[C@@H]2CC[C@H](OC(C(=O)O)P(=O)(O)O)C2)c(=O)[nH]1 (mixture of isomers) [(L,D)-(±)G-α-CNP] .
Output: 7.46

----------
# target under test: cellular DNA polymerase β (Homo sapiens, UniProt P06746)
# experimental protocol: Cellular DNA polymerase β assay
# Assay type: biochemical
value kind: IC50 (µM)
Answers are plain numbers, in µM.

Nc1nc2c(ncn2[C@H]2CC[C@@H](COP(=O)(O)OP(=O)(O)OP(=O)(O)O)O2)c(=O)[nH]1 [ddGTP, 2′,3′-dideoxyguanosine-5′-triphosphate] = 2.2

Alright, here's another compound for you.
Input: Name the recorded IC50 for Nc1nc2c(ncn2[C@@H]2CC[C@H](OC(C(=O)O)P(=O)(O)O)C2)c(=O)[nH]1 (mixture of isomers) [(L,D)-(±)G-α-CNP] .
Output: 531

----------
Field: IC50. Provide a value for each of the molecules that follow.
# target under test: HCMV DNA polymerase (Human cytomegalovirus, UniProt P08546)
# experimental protocol: HCMV DNA polymerase enzyme assay
# Format: biochemical
# condition parameters: read-out: IC50 HCMV DNA pol; calf thymus DNA, [^3H]dTTP

O=C(O)P(=O)(O)O = 9.4 µM

Alright, here's another molecule for you.
Input: Name the recorded IC50 for Cn1c2ccccc2c2c1cc(C#N)c(=O)n2-c1ccc([N+](=O)[O-])cc1 .
Output: > 100 µM

----------
# target under test: HIV-1 RT (Human immunodeficiency virus type 1 group M subtype B)
# experimental protocol: HIV-1 RT assay with homopolymeric template/primers
# Assay type: biochemical
# condition parameters: read-out: IC50 HIV-1 RT; poly rA.dT, [^3H]dTTP
value kind: pIC50
One number for each entry, as −log10 of the molar value.

O=C(O)P(=O)(O)O = 6.26

Alright, here's another molecule for you.
Input: Name the recorded pIC50 for Cn1c2ccccc2c2c1cc(C#N)c(=O)n2-c1ccc([N+](=O)[O-])cc1 .
Output: 6.59

----------
# target under test: HCMV DNA polymerase (Human cytomegalovirus)
# experimental protocol: HCMV DNA polymerase enzyme assay
# Format: biochemical
# condition parameters: IC50 HCMV DNA pol, calf thymus DNA, [^3H]dGTP
Field: pIC50. Provide a value for each of the compounds that follow.
Numbers only, as −log10 of the molar value.

Nc1nc2c(ncn2[C@@H]2CC[C@H](OC(C(=O)O)P(=O)(O)O)C2)c(=O)[nH]1 (mixture of isomers) [(L,D)-(±)G-α-CNP] = 5.03

Alright, here's another compound for you.
Input: Could you share what pIC50 was measured for Nc1nc2c(ncn2[C@H]2CC[C@@H](COP(=O)(O)OP(=O)(O)OP(=O)(O)O)O2)c(=O)[nH]1 [ddGTP, 2′,3′-dideoxyguanosine-5′-triphosphate] , tested on HCMV DNA polymerase (Human cytomegalovirus)?
Output: 4.32

----------
Field: pIC50. Provide a value for each of the molecules that follow.
# target under test: HIV-1 RT (Human immunodeficiency virus type 1 group M subtype B)
# experimental protocol: HIV-1 RT assay with homopolymeric template/primers
# Assay type: biochemical
# condition parameters: IC50 HIV-1 RT, poly rC.dG, [^3H]dGTP
Answers are plain numbers, as −log10 of the molar value.

Nc1nc2c(ncn2[C@H]2CC[C@@H](COP(=O)(O)OP(=O)(O)OP(=O)(O)O)O2)c(=O)[nH]1 [ddGTP, 2′,3′-dideoxyguanosine-5′-triphosphate] = 6.39

Alright, here's another molecule for you.
Input: Name the recorded pIC50 for Nc1nc2c(ncn2[C@@H]2CC[C@H](OC(C(=O)O)P(=O)(O)O)C2)c(=O)[nH]1 (mixture of isomers) [(L,D)-(±)G-α-CNP] .
Output: 6.21

Where do the numbers come from? From paper PMC5557014.
